Target: MAO-B (Rattus norvegicus)
Construct: in partially purified mitochondria from rat brain; from tissue; host or cells: rat brain mitochondria (partially purified, differential centrifugation)
Sequence (P19643 whole entry): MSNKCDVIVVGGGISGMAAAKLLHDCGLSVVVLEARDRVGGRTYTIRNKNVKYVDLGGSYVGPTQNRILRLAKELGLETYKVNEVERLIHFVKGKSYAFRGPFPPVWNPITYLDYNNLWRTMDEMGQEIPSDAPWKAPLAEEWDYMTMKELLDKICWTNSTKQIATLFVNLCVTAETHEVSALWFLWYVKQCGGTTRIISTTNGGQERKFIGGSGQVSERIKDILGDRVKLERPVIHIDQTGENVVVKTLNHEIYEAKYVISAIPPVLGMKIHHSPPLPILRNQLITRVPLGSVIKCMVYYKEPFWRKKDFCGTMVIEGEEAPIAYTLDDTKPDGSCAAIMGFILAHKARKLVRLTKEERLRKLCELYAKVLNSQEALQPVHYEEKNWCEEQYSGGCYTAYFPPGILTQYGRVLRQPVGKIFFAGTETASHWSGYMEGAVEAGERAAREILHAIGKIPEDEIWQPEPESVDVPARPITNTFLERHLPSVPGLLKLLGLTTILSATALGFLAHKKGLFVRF
Assay: Inhibition of MAO in vitro, rat brain mitochondria, 14C phenethylamine (PEA) as substrate
Format: biochemical
Settings: ratio of the inhibitory activity against MAO-B versus MAO-A

compound | MAO B SELECTIVITY
CC(C)C/C(=C\F)CN [(E)-2-Isobutyl-3-fluoroallylamine] | 77
CCCCCCC/C(=C\F)CN [(E)-2-Heptyl-3-fluoroallylamine] | 13
CCCCCC/C(=C\F)CN [(E)-2-Hexyl-3-fluoroallylamine] | 24
CCCCCCCCCCC/C(=C\F)CN [(E)-2-Undecyl-3-fluoroallylamine] | 1.5
CCCC/C(=C\F)CN [(E)-2-Butyl-3-fluoroallylamine] | 55
CCC(C)/C(=C\F)CN (stereo not shown) [(E)-2-sec-Butyl-3-fluoroallylamine] | 24
CC(C)/C(=C\F)CN [(E)-2-Isopropyl-3-fluoroallylamine] | 68
